Numbers sourced from the supplement of paper PMC12042874.

test: amyloid nucleation score (Sup35N fusion, yeast selection) (log enrichment); library NNK3; higher = more nucleation; inactive = no reads after selection;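 further: zero at mode of non-aggregating sequences after 7 days selection at 30°C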
readout: amyloid nucleation score

[[record]]
substance = "RYDYFLFLIFSFLCTVDPMV"
readout = "amyloid nucleation score"
endpointresult = -0.211

[[record]]
substance = "SFNSRIIKRDDCFMDLIFWT"
readout = "amyloid nucleation score"
endpointresult = 1.07

[[record]]
substance = "LVNLTVTYISQYFPFYDSPT"
readout = "amyloid nucleation score"
endpointresult = 2.92

[[record]]
substance = "GYDAGAWPRWRRSIWVHGYG"
readout = "amyloid nucleation score"
endpointresult = "inactive"

[[record]]
substance = "LSVNYKLGQYRTLWFHHSLG"
readout = "amyloid nucleation score"
endpointresult = "inactive"

[[record]]
substance = "SIIDKCATTLTDVSGNQLGV"
readout = "amyloid nucleation score"
endpointresult = "inactive"

[[record]]
substance = "AVCWLRMTYGLRLEVGSPVD"
readout = "amyloid nucleation score"
endpointresult = "inactive"

[[record]]
substance = "FTDFCVCGCNVFDVMFLLQS"
readout = "amyloid nucleation score"
endpointresult = 2.67

[[record]]
substance = "FGQYWKRCTTCLCGWPTGIG"
readout = "amyloid nucleation score"
endpointresult = "inactive"

[[record]]
substance = "YTVILRVRGSMSAMQSMKFS"
readout = "amyloid nucleation score"
endpointresult = "inactive"

[[record]]
substance = "LLMDGLIRFWS"
readout = "amyloid nucleation score"
endpointresult = "inactive"

[[record]]
substance = "HKDMVNASLPGITSARWLGR"
readout = "amyloid nucleation score"
endpointresult = "inactive"

[[record]]
substance = "FFWECYRQINCSINW"
readout = "amyloid nucleation score"
endpointresult = "inactive"

[[record]]
substance = "LPVHLDNMCFHVVRAEESRR"
readout = "amyloid nucleation score"
endpointresult = "inactive"

[[record]]
substance = "GVGLIE"
readout = "amyloid nucleation score"
endpointresult = "inactive"

[[record]]
substance = "VVWASV"
readout = "amyloid nucleation score"
endpointresult = "inactive"

[[record]]
substance = "LWLTLGDGIEGVYPRVGVKL"
readout = "amyloid nucleation score"
endpointresult = "inactive"


----------
test: amyloid nucleation score (Sup35N fusion, yeast selection) (log enrichment); library NNK1; higher = more nucleation; inactive = no reads after selection
Each entry gets Condition not met if its amyloid nucleation score stays under 0.2, and Condition met if its amyloid nucleation score is 0.2 or above.

[[record]]
substance = "SRFWKRVHAYTAVISEMYSA"
categorylabel = "Condition not met"

[[record]]
substance = "DGRRLNLIWLYRIFWN"
categorylabel = "Condition not met"

[[record]]
substance = "TSIFCGSLLGAKVDSTPVPV"
categorylabel = "Condition not met"

[[record]]
substance = "LRLMLCFMFYAWTALCKPRD"
categorylabel = "Condition met"

[[record]]
substance = "KMRCDGLEQRLRSQSDLLAP"
categorylabel = "Condition met"

[[record]]
substance = "SRTVFGCEDIRERRWVFWEI"
categorylabel = "Condition met"

[[record]]
substance = "LIENTGLHRENISRAPGGR"
categorylabel = "Condition not met"

[[record]]
substance = "SIFADGLVVGLGPSLYSVFF"
categorylabel = "Condition not met"

[[record]]
substance = "VFRPGRSSDCNLSMLVQRVW"
categorylabel = "Condition met"

[[record]]
substance = "SWSSGGNFARFIQYVPATHA"
categorylabel = "Condition not met"

[[record]]
substance = "RESDFYTLDLRQVMISAEPL"
categorylabel = "Condition not met"

[[record]]
substance = "VGYEVLSHYDAGIVSLVYLS"
categorylabel = "Condition met"

[[record]]
substance = "TSFFFHEQHHFKGNKFNFEV"
categorylabel = "Condition met"

[[record]]
substance = "NDRSFYQITKILHPRDASQN"
categorylabel = "Condition not met"

[[record]]
substance = "MNLSVSVPVHTRLDMMFM"
categorylabel = "Condition met"

[[record]]
substance = "HCSSVQFPRTGVIEVALQKD"
categorylabel = "Condition not met"

[[record]]
substance = "SLNAMFIFLLAYKRGVYEYM"
categorylabel = "Condition met"

[[record]]
substance = "DFVLIFLRICSCPSHTNFYL"
categorylabel = "Condition met"

[[record]]
substance = "IAVKQFSRPPVFYIYSSLEC"
categorylabel = "Condition met"

[[record]]
substance = "QPNNGVPQIMDTV"
categorylabel = "Condition not met"

[[record]]
substance = "FVSGVFGYRMYDPRRVWLSL"
categorylabel = "Condition not met"

[[record]]
substance = "SKDKGSTLGTSNLGRDGSWK"
categorylabel = "Condition met"

[[record]]
substance = "TLLELLCEWNTVHKGSP"
categorylabel = "Condition met"

[[record]]
substance = "LIQWENGTH"
categorylabel = "Condition not met"

[[record]]
substance = "MGGWNGNGIFCAYIYM"
categorylabel = "Condition met"

[[record]]
substance = "RWAVLACFCMGD"
categorylabel = "Condition met"

[[record]]
substance = "GGALSCVRDF"
categorylabel = "Condition met"

[[record]]
substance = "YSIDLIPYRDYGNKTCHGIM"
categorylabel = "Condition met"

[[record]]
substance = "CSRTMTWYP"
categorylabel = "Condition not met"

[[record]]
substance = "VFLSADDVSGPRVDAVSGYS"
categorylabel = "Condition met"

[[record]]
substance = "AFMYYTGATIMHLQSANGGL"
categorylabel = "Condition met"

[[record]]
substance = "CGFEVFVRIV"
categorylabel = "Condition met"

[[record]]
substance = "ESHSSTKGSEWLRHSHSDGV"
categorylabel = "Condition met"

[[record]]
substance = "NSVWLLTNVLKFGTNVSRHR"
categorylabel = "Condition met"

[[record]]
substance = "RLHAVTSLCR"
categorylabel = "Condition met"

[[record]]
substance = "NVILKDLQVYPEKAVSINRY"
categorylabel = "Condition met"

[[record]]
substance = "VGSLGM"
categorylabel = "Condition not met"

[[record]]
substance = "NTHTAWNRIGRTWRQNWTWG"
categorylabel = "Condition not met"

[[record]]
substance = "APRCKSIWS"
categorylabel = "Condition not met"

[[record]]
substance = "RYVCTESESVDLSQMAVIMS"
categorylabel = "Condition met"

[[record]]
substance = "NFVIFKRFFNFHKNWNGWSR"
categorylabel = "Condition met"

[[record]]
substance = "KPEFVNWIC"
categorylabel = "Condition not met"

[[record]]
substance = "FCNLYGKQTYLSGFGIHCVV"
categorylabel = "Condition not met"

[[record]]
substance = "KNTCKQMV"
categorylabel = "Condition met"

[[record]]
substance = "FFLSLARVGVILHPMMVLTG"
categorylabel = "Condition not met"

[[record]]
substance = "YSWILKKWVFVYSLFTSGHM"
categorylabel = "Condition met"

[[record]]
substance = "FAVLHNMMFMKYVRLFLVVT"
categorylabel = "Condition met"

[[record]]
substance = "PFSAWYNNNTLTYSIDCINF"
categorylabel = "Condition met"

[[record]]
substance = "RCHTLFIVSLYRRVRNHMSC"
categorylabel = "Condition met"

[[record]]
substance = "GLLRAA"
categorylabel = "Condition met"

[[record]]
substance = "VLGRRKMIQVNFNFKYLSWD"
categorylabel = "Condition met"

[[record]]
substance = "PVCFAFQFRATPNMQVHQPS"
categorylabel = "Condition not met"

[[record]]
substance = "VLLADVCLSVERGKVTDPGS"
categorylabel = "Condition met"

[[record]]
substance = "LLKENWFNCSLWHDIVGISM"
categorylabel = "Condition not met"

[[record]]
substance = "WETVQLTGRVLFWAISYCKI"
categorylabel = "Condition not met"

[[record]]
substance = "DFHDLSNLVTGGLLITHIL"
categorylabel = "Condition met"

[[record]]
substance = "CLFFNYRVIEFNTPGVNMFW"
categorylabel = "Condition met"

[[record]]
substance = "STVREFSVVGPYVTGSVAGR"
categorylabel = "Condition met"

[[record]]
substance = "KLLNRTMRTMVSVSRVM"
categorylabel = "Condition met"

[[record]]
substance = "ILWPGWDYTKKIVFSCLMVI"
categorylabel = "Condition not met"

[[record]]
substance = "RAKLFHWLNWR"
categorylabel = "Condition met"

[[record]]
substance = "PIKHCRRRNTDRRKTGMSQV"
categorylabel = "Condition not met"

[[record]]
substance = "MIRGLPQMMNWVP"
categorylabel = "Condition met"

[[record]]
substance = "QMSKPARTLKSVRGPLDLRI"
categorylabel = "Condition not met"

[[record]]
substance = "IPVWTYIVWAQESILQRGCW"
categorylabel = "Condition met"

[[record]]
substance = "FFPTEYHALENLLHADVRVK"
categorylabel = "Condition not met"

